Cited source for all entries: patent EP4768499A1

test: Metabolic stability test: liver microsomal stability assay; format: in vitro ADME, mouse; conditions: mouse liver microsomes 0.5 mg protein/mL, compound 1 µM, absence of NADPH
Starred links: 1 amine or outer side, 2 acyl side, 3 side chain; linkers in the order of their positions; H or OH if unused. Positions of bridges follow the written chain, without caps; N, C: chain ends. Non-standard residues stand in square brackets, D forms with d. Residues, ends and D or L forms follow the SMILES beside them. *: point of attachment. NMedβ3hAla = C[C@H](CC(=O)[*:2])N(C)[*:1]; NMeF = CN[C@@H](Cc1ccccc1)C(=O)O; NMeGABA = CN(CCCC(=O)[*:2])[*:1]; NMeI = CC[C@H](C)[C@H](NC)C(=O)O; hPhe = N[C@@H](CCc1ccccc1)C(=O)O; NMeβAla = CN(CCC(=O)[*:2])[*:1]; NMeD = CN[C@@H](CC(=O)O)C(=O)O; NMeL = CN[C@@H](CC(C)C)C(=O)O; NMeV = CN[C@H](C(=O)O)C(C)C; NMeA = CN[C@@H](C)C(=O)O; Piperidide = C1CCN(*)CC1; Abu = CC[C@H](N)C(=O)O; tBu = CC(C)(C)*
So I've got a bunch of molecules here, and I need their Mouse Hepatic Microsome CLh,int NADPH(-) values.
Record the value in µL/min/mg Protein, omitting the unit from your answer.

Input CC[C@H](C)[C@@H]1NC(=O)[C@H](Cc2ccccc2)N(C)C(=O)[C@H](CC(C)C)N(C)C(=O)[C@H](CC(C)C)NC(=O)[C@H](C)N(C)C(=O)C[C@@H](C(=O)N2CCCCC2)N(C)C(=O)[C@H](C)N(C)C(=O)[C@H](CC(C)C)NC(=O)[C@H](CC(C)C)N(C)C(=O)CNC(=O)[C@H]([C@@H](C)CC)N(C)C(=O)[C@H](Cc2ccccc2)N(C)C(=O)[C@H](C)NC1=O [pd152] ([NMeA]L[NMeL][NMeF]IA[NMeF][NMeI]G[NMeL]L[NMeA][NMeD]-Piperidide; lactam N-13) . Output Mouse Hepatic Microsome CLh,int NADPH(-): 32.5

Mouse Hepatic Microsome CLh,int NADPH(-) recorded for this molecule, CC[C@@H]1NC(=O)[C@H](C(C)C)NC(=O)[C@H]([C@@H](C)CC)N(C)C(=O)[C@H](CCc2ccccc2)NC(=O)[C@H](Cc2ccccc2)N(C)C(=O)[C@H]([C@@H](C)CC)NC(=O)[C@H](CC(C)C)N(C)C(=O)[C@H](CC(C)C)NC(=O)CCN(C)C(=O)C[C@@H](C)N(C)C(=O)[C@H](CC(C)C)N(C)C(=O)CNC(=O)[C@@H]2CCCN2C(=O)[C@H](CC(C)C)N(C)C1=O [pd064] (cyclo([Abu][NMeL]PG[NMeL][NMedβ3hAla][NMeβAla]L[NMeL]I[NMeF][hPhe][NMeI]V)) , is 43.3

Kindly note the recorded Mouse Hepatic Microsome CLh,int NADPH(-) for CC[C@H](C)[C@@H]1NC(=O)[C@H](C)N(C)C(=O)[C@H]([C@@H](C)O)NC(=O)[C@H](CC(C)C)N(C)C(=O)[C@H](COC(C)(C)C)NC(=O)[C@H](Cc2ccccc2)N(C)C(=O)[C@H]([C@@H](C)CC)NC(=O)CNC(=O)[C@H](Cc2ccccc2)N(C)C(=O)[C@H](CC(C)C)N(C)C(=O)CCCN(C)C(=O)C[C@@H](C)N(C)C(=O)[C@H](CC(C)C)NC1=O [pd145] (cyclo(GI[NMeF]S(tBu)[NMeL]T[NMeA]IL[NMedβ3hAla][NMeGABA][NMeL][NMeF])) , which is 35.7

get_value(item= CC[C@H](C)[C@@H]1NC(=O)[C@H](CC(C)C)N(C)C(=O)[C@H](CC(C)C)N(C)C(=O)[C@H](C)N(C)C(=O)C[C@@H](C(=O)N2CCCCC2)N(C)C(=O)[C@H](C)N(C)C(=O)[C@H](CC(C)C)NC(=O)[C@H](C(C)C)N(C)C(=O)[C@H](CC(C)C)N(C)C(=O)CNC(=O)[C@H]([C@@H](C)CC)N(C)C(=O)[C@H](Cc2ccccc2)N(C)C(=O)[C@H](C)NC(=O)[C@H](Cc2ccccc2)N(C)C1=O [pd084] ([NMeA][NMeL][NMeL]I[NMeF]A[NMeF][NMeI]G[NMeL][NMeV]L[NMeA][NMeD]-Piperidide; lactam N-14) , readout=Mouse Hepatic Microsome CLh,int NADPH(-)) returns 37.8
